The measured values listed here are drawn from patent US9708321B2.

Molecular target: hmGluR4 (Homo sapiens, UniProt Q14833)
Construct: host or cells: HEK293T
Sequence (Q14833 33-912): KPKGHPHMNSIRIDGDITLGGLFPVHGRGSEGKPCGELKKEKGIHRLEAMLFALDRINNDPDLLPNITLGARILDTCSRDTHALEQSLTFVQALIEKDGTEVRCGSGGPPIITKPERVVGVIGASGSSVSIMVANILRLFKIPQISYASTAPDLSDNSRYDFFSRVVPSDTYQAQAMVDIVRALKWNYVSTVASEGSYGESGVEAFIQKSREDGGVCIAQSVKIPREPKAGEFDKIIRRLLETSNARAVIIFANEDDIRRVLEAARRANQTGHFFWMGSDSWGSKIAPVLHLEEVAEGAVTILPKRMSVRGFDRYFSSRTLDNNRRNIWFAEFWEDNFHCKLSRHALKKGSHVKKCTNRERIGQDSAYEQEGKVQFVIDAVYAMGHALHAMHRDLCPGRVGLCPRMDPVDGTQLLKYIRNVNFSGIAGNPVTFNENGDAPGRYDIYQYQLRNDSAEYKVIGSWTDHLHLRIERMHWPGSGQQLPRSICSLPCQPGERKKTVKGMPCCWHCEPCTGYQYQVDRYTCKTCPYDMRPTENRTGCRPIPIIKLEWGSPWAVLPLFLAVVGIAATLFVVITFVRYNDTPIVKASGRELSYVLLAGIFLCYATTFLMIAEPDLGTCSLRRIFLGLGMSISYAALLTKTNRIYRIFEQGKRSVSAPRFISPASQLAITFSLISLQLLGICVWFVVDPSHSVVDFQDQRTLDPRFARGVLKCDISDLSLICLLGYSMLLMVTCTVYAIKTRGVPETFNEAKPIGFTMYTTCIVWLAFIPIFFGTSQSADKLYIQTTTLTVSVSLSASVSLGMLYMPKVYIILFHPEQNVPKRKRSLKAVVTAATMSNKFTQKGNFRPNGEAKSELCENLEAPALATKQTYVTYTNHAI
Assay: HEK-293 mGluR4 cells cAMP assay with EC20 L-Glutamate (HTRF)
Format: cell-based
Settings: positive allosteric activity at EC20 L-Glutamate, 10 μM Forskolin, HEK293T mGluR4 cells, cAMP HTRF; read-out: hrmGluR4/HEK293T-hmGluR4 (EC50)
Method: II. Biological Assays HEK-293 mGluR4 Cells cAMP Assay with EC20 L-Glutamate Using mGluR4 suspension cell format, 10 μM Forskolin (final conc.) used to induce the production of cAMP. Test the positive allosteric activity of the compounds of the invention at EC20 (2.3 μM for mGluR4 and 4.3 μM for mGluR6) L-Glutamate, cAMP dymanic2 kit is intended for the direct quantitative determination of cAMP and its principle is based on HTRF technology. […]
Reported EC50 values are given for each entry in this list.

- COMPOUND: "COc1ccc(N2C(=O)c3ccc(Cl)cc3NC23CCN(Cc2cccc(Cl)c2)CC3)cc1 [Compound 38]"
  ASSAY_SYSTEM: "hmGluR4 (Homo sapiens, UniProt Q14833)"
  OBSERVATION_TYPE: "EC50"
  VAL: "< 1000 nM"
- COMPOUND: "COCCOc1ccc(N2C(=O)c3ccc(F)cc3NC23CCN(Cc2ccc(F)c(F)c2)CC3)cc1 [Compound 106]"
  ASSAY_SYSTEM: "hmGluR4 (Homo sapiens, UniProt Q14833)"
  OBSERVATION_TYPE: "EC50"
  VAL: "1000 to 10000 nM"
- COMPOUND: "O=C1c2ccc(Br)cc2NC2(CCN(Cc3ccnc4ccccc34)CC2)N1c1ccc(OC(F)(F)F)cc1 [Compound 47]"
  ASSAY_SYSTEM: "hmGluR4 (Homo sapiens, UniProt Q14833)"
  OBSERVATION_TYPE: "EC50"
  VAL: "< 1000 nM"
- COMPOUND: "COC(=O)c1ccc2c(c1)NC1(CCN(Cc3ccccc3)CC1)N(c1ccc(OC)cc1)C2=O [Compound 15]"
  ASSAY_SYSTEM: "hmGluR4 (Homo sapiens, UniProt Q14833)"
  OBSERVATION_TYPE: "EC50"
  VAL: "< 1000 nM"
- COMPOUND: "O=C1c2ccc(C(F)(F)F)cc2NC2(CCN(Cc3cccc(Cl)c3)CC2)N1c1ccc(OC(F)(F)F)cc1 [Compound 10]"
  ASSAY_SYSTEM: "hmGluR4 (Homo sapiens, UniProt Q14833)"
  OBSERVATION_TYPE: "EC50"
  VAL: "< 1000 nM"

IN: Which EC50 value belongs to O=C1c2ccc(Br)cc2NC2(CCN(Cc3cccnc3)CC2)N1c1ccc(OC(F)(F)F)cc1 [Compound 118] ?
OUT: 1000 to 10000 nM

IN: Same question, CCC(c1ccccc1)N1CCC2(CC1)Nc1cc(Br)ccc1C(=O)N2c1ccc(Cl)cc1 (stereo not drawn) [Compound 61] this time
OUT: < 1000 nM

IN: Please do the same for COc1ccc(N2C(=O)c3ccccc3NC23CCN(Cc2ccccc2OC(F)(F)F)CC3)cc1 [Compound 67] as well.
OUT: 1000 to 10000 nM

IN: Thanks! And CC(=O)c1cc2c(cc1Br)C(=O)N(c1ccc(OC(F)(F)F)cc1)C1(CCN(Cc3ccc(F)c(F)c3)CC1)N2 [Compound 12] ?
OUT: < 1000 nM

IN: What do you have for COCCOC(=O)c1ccc2c(c1)NC1(CCN(Cc3ccc(F)c(F)c3)CC1)N(c1ccc(OC(F)(F)F)cc1)C2=O [Compound 99] ?
OUT: 1000 to 10000 nM

IN: Next: CC(C)OC(=O)c1ccc2c(c1)NC1(CCN(Cc3ccc(F)c(F)c3)CC1)N(c1ccc(OC(F)(F)F)cc1)C2=O [Compound 31]
OUT: < 1000 nM

IN: Similarly, COc1ccc(N2C(=O)c3ccccc3NC23CN(Cc2cccc4ccccc24)C3)cc1 [Compound 86] ?
OUT: 1000 to 10000 nM

IN: Further, for O=C1c2ccc(Br)cc2NC2(CCN(Cc3ccc(F)c(F)c3)CC2)N1c1ccc(OC(F)(F)F)cc1 [Compound 32] ?
OUT: < 1000 nM

IN: Now the same for O=C1c2ccc(Br)cc2NC2(CCN(Cc3cnc(Br)s3)CC2)N1c1ccc(OC(F)(F)F)cc1 [Compound 110]
OUT: 1000 to 10000 nM

IN: Record: O=C1c2ccc(F)cc2NC2(CN(C(c3cccc(F)c3)C(F)(F)F)C2)N1c1ccc(OC(F)(F)F)cc1 (stereo not drawn) [Compound 53]
OUT: < 1000 nM

IN: Okay, and COc1ccc(N2C(=O)c3ccccc3NC23CN(Cc2ccccc2F)C3)cc1 [Compound 84] ?
OUT: 1000 to 10000 nM
